GI50 values recorded for NCI-H226
Record the value in µM, omitting the unit from your answer.

Reference set (4 entries):
{"columns": ["COMPOUND", "READOUT_UNIT", "READOUT_NUMBER"],
 "data": [
  ["CC1=C2[C@@H](CC1)[C@]1(C)O[C@@](C3CC3)(C[C@H]1OC(=O)CO)[C@H]2OC(=O)C=Cc1ccccc1", "µM", 17],
  ["CC1=C2[C@@H](CC1)[C@]1(C)O[C@@](C(C)C)(C[C@H]1OC(=O)CO)[C@H]2OC(=O)C1CC1c1ccccc1 (stereo partly shown)", "µM", 17],
  ["CC1=C2[C@@H](CC1)[C@]1(C)O[C@@](C3CCCCC3)(C[C@H]1OC(=O)CO)[C@H]2OC(=O)C=Cc1ccccc1", "µM", 12],
  ["CC(=O)O[C@@H]1C[C@]2(C(C)C)O[C@@]1(C)[C@@H]1CCC(C)=C1[C@@H]2OC(=O)C=Cc1ccccc1", "µM", 29]
]}

Challenge: Return GI50 (reported value) for this compound: `CC1=C2[C@@H](CC1)[C@]1(C)O[C@@](C(C)C)(C[C@H]1OC(=O)CO)[C@H]2OC(=O)/C=C/c1ccccc1`
Response given: 35

Challenge: Provide GI50 value for the following compound: `CC1=C2[C@@H](CC1)[C@]1(C)O[C@@](C(C)C)(C[C@H]1OC(=O)[C@H](C)O)[C@H]2OC(=O)C=Cc1ccccc1`
Response given: 11

Challenge: Recall and state the measured GI50 for `CC1=C2[C@@H](CC1)[C@]1(C)O[C@@](c3ccccc3)(C[C@H]1OC(=O)CO)[C@H]2OC(=O)C=Cc1ccccc1` .
Response given: 16

The measurements presented in this section are drawn from patent US10287297B2.
